- Test system: mHTT protein in GM04724 (CAG 70/20) Huntington's disease patient lymphoblast cells
- Assay notes: mHTT protein assay, 2B7-MW1 assay via Mesoscale Discovery (MSD)
- Assay type: cell-based, human
- Condition parameters: GM04724 Huntington's disease patient lymphoblasts
Endpoint: EC50

Some entries whose results are on file:
CN(c1ccc(-c2cc3c(=O)n(C)ccc3cc2O)nn1)[C@@H]1C[C@H]2CC[C@H](N2)[C@@H]1F [Compound 83A] :: 0.01 to 15 nM
Cc1cnc(-c2ccc(-c3ccc(N(C)C4CC5CCC(N5)C4F)nn3)c(O)c2)o1 (single isomer, unassigned) [Compound 48B] :: 16 to 50 nM
CCN(c1ccc(-c2ccc(-c3cn[nH]c3)cc2O)nn1)[C@H]1C[C@@H]2CC[C@@H](N2)[C@H]1F [Compound 12B] :: 0.01 to 15 nM
CN(c1ccc(-c2ccc(-c3cnn(C)c3)cc2O)nn1)[C@@H]1C[C@H]2CC(F)(F)[C@@H](C1)N2 [Compound 3A] :: 16 to 50 nM
C#Cc1ccc(-c2ccc(N(C)[C@H]3C[C@@H]4CC[C@@H](N4)[C@H]3F)nn2)c(O)c1 [Compound 10B] :: 51 to 100 nM

Asked: What EC50 value was documented for this molecule, Cc1ccc(-c2ccc(-c3ccc(N(C)[C@@H]4C[C@H]5CCC[C@H](N5)[C@@H]4F)nn3)c(O)c2)nn1 [Compound 27A] ?
Given back: 101 to 500 nM

Asked: What EC50 value was documented for this molecule, CN(c1ccc(-c2cc3cnccc3cc2O)nn1)[C@H]1C[C@@H]2CC[C@H]([C@H]1F)N2C [Compound 93B] ?
Given back: 101 to 500 nM

Asked: What EC50 value was documented for this molecule, CN(c1ccc(-c2cc3oc(=O)n(C)c3cc2O)nn1)[C@H]1C[C@@H]2CC[C@@H](N2)[C@H]1F (single isomer, unassigned) [Compound 79B] ?
Given back: 51 to 100 nM

Asked: What EC50 value was documented for this molecule, CN(c1ccc(-c2cc3cnccc3cc2O)nn1)[C@@H]1C[C@H]2CC[C@H](N2)[C@@H]1F (single isomer, unassigned) [Compound 7A] ?
Given back: 0.01 to 15 nM

###

- System: MDR1 (P-gp)
- Assay notes: Blood-brain-barrier (BBB) penetration potential via MDCK-MDR1 permeability assay
- Condition parameters: dog, MDCK-MDR1, pH 7.4, MDCK-MDR1: Papp A-B, A-B direction
Endpoint: Papp A→B at 120 min, 5 μM (×10⁻⁶ cm/s)
API: value field is a number in ×10⁻⁶ cm/s; no unit string.

Cc1cnc(-c2ccc(-c3ccc(N(C)[C@@H]4C[C@H]5CCC[C@H](N5)[C@@H]4F)nn3)c(O)c2)o1 [Compound 16A] :: 2.31
CN(c1ccc(-c2ccc(-c3cc[nH]n3)cc2O)nn1)[C@H]1C[C@@H]2CC[C@@H](N2)[C@H]1F (single isomer, unassigned) [Compound 33B] :: 1.75
Cc1nc2cc(O)c(-c3ccc(N(C)[C@H]4C[C@@H]5CC[C@@H](N5)[C@H]4F)nn3)cc2o1 (single isomer, unassigned) [Compound 40B] :: 4.71
CN(c1ccc(-c2ccc(-c3cn[nH]c3)cc2O)nn1)[C@H]1C[C@@H]2CC[C@@H](N2)[C@H]1F (single isomer, unassigned) [Compound 42B] :: 0.71
CN(c1ccc(-c2cc3ncccc3cc2O)nn1)[C@@H]1C[C@H]2CC(F)(F)[C@@H](C1)N2 [Compound 46A] :: 31.7
CN(c1ccc(-c2cc3cnn(C)c3cc2O)nn1)[C@H]1C[C@@H]2CC[C@@H](N2)[C@H]1F [Compound 76B] :: 3.97
CN(c1ccc(-c2ccc(-c3cnn(C(F)F)c3)cc2O)nn1)[C@H]1C[C@@H]2CC[C@@H](N2)[C@H]1F [Compound 20B] :: 3.59
CN(c1ccc(-c2cc3c(=O)[nH]ccc3s2)nn1)[C@@H]1C[C@H]2CC[C@H](N2)[C@@H]1F :: 0.09
CN(c1ccc(-c2ccc(-c3cn[nH]c3)cc2O)nn1)C1CC2COCC(N2)C1F (centres unmarked) :: 1.67
CN(c1ccc(-c2ccc(-c3cnn(C)c3)cc2O)nn1)[C@H]1C[C@@H]2CCC[C@@H](N2)[C@@H]1F [Compound 14B] :: 2.95

Asked: What Papp A→B at 120 min, 5 μM value was documented for this compound, CN(c1ccc(-c2cc(C#N)c(F)cc2O)nn1)[C@H]1C[C@@H]2CC[C@@H](N2)[C@H]1F [Compound 72B] ?
Given back: 10.9

Asked: What Papp A→B at 120 min, 5 μM value was documented for this compound, CN(c1ccc(-c2cc3nccnc3cc2O)nn1)[C@H]1C[C@@H]2CC[C@@H](N2)[C@H]1F [Compound 88B] ?
Given back: 6.88

Asked: What Papp A→B at 120 min, 5 μM value was documented for this compound, Cn1cnc2cc(-c3ccc(N(C4CC4)[C@H]4C[C@@H]5CC[C@@H](N5)[C@H]4F)nn3)c(O)cc2c1=O [Compound 56B] ?
Given back: 1.12

Asked: What Papp A→B at 120 min, 5 μM value was documented for this compound, CN(c1ccc(-c2cc3ncn(CC(F)(F)F)c(=O)c3cc2O)nn1)[C@@H]1C[C@H]2CCC[C@H](N2)[C@@H]1F [Compound 58A] ?
Given back: 0.36

###

This listing pairs compounds with measured efflux ratio at 120 min, 5 μM.
- Tested on: MDR1
- Assay notes: Blood-brain-barrier (BBB) penetration potential via MDCK-MDR1 permeability assay
- Condition parameters: dog, MDCK-MDR1, pH 7.4, MDCK-MDR1: Efflux, efflux ratio
Number only, please.

CN(c1ccc(-c2ccc(C#N)cc2O)nn1)[C@H]1C[C@@H]2CCC[C@@H](N2)[C@H]1F [Compound 39B] :: 9

Asked: What efflux ratio at 120 min, 5 μM value was documented for this compound, CN(c1ccc(-c2ccc(-c3cnn(C)c3)cc2O)nn1)C1CC2COCC(N2)C1F (single isomer, unassigned) [Compound 80A] ?
Given back: 11

Asked: What efflux ratio at 120 min, 5 μM value was documented for this compound, Cc1cnc(-c2ccc(-c3ccc(N(C)[C@H]4C[C@@H]5CCC[C@@H](N5)[C@H]4F)nn3)c(O)c2)cn1 [Compound 26B] ?
Given back: 16

Asked: What efflux ratio at 120 min, 5 μM value was documented for this compound, CN(c1ccc(-c2cc3ncccc3cc2O)nn1)[C@@H]1C[C@H]2CCC[C@H](N2)[C@@H]1F [Compound 78A] ?
Given back: 23

###

This listing pairs compounds with measured Papp B→A at 120 min, 5 μM.
- Test system: MDR1 (P-gp)
- Assay notes: Blood-brain-barrier (BBB) penetration potential via MDCK-MDR1 permeability assay
- Condition parameters: dog, MDCK-MDR1, pH 7.4, MDCK-MDR1: Papp B-A, B-A direction
Number first, unit second: that is the form wanted.

Some entries whose results are on file:
CN(c1ccc(-c2cc(C#N)c(F)cc2O)nn1)[C@H]1C[C@@H]2CC[C@@H](N2)[C@H]1F [Compound 72B] :: 36.4 ×10⁻⁶ cm/s
CN(c1ccc(-c2cc3ncccc3cc2O)nn1)[C@H]1C[C@@H]2CC(F)(F)[C@H](C1)N2 [Compound 46B] :: 31.6 ×10⁻⁶ cm/s
CN(c1ccc(-c2ccc(-n3nccn3)cc2O)nn1)[C@H]1C[C@@H]2CC[C@@H](N2)[C@H]1F [Compound 90B] :: 16.1 ×10⁻⁶ cm/s

Now examine the next entry.
Asked: Return Papp B→A at 120 min, 5 μM measured with MDR1 (P-gp) given this compound: COc1cc(-c2ccc(-c3ccc(N(C)[C@H]4CC5N[C@@H](C4)CC5(F)F)nn3)c(O)c2)cnn1 (single isomer, unassigned)
Given back: 39 ×10⁻⁶ cm/s

###

- Test system: MDR1 (P-gp)
- Assay notes: in vitro
- Condition parameters: dog, MDCK-MDR1, pH 7.4
This listing pairs compounds with measured Papp B→A at 120 min, 5 μM.
API: value field is a number in ×10⁻⁶ cm/s; no unit string.

CN(c1ccc(-c2ccc(Oc3nccn3C)cc2O)nn1)[C@@H]1C[C@H]2CC[C@H](N2)[C@@H]1F (single isomer, unassigned) [Compound 123A] :: 59.7
CN(c1ccc(-c2cc3occc(=O)c3cc2O)nn1)[C@H]1C[C@@H]2CC[C@H]([C@H]1F)N2C (single isomer, unassigned) [Compound 94B] :: 41.2
CCc1cn(-c2ccc(-c3ccc(N(C)[C@H]4C[C@@H]5CC(F)(F)[C@H](C4)N5)nn3)c(O)c2)cn1 [Compound 18B] :: 35.6
CNC(=O)c1cc(O)c(-c2ccc(N(C)[C@H]3C[C@@H]4CC[C@H]([C@H]3F)N4C)nn2)cc1F (single isomer, unassigned) [Compound 96B] :: 55.2

Asked: Return Papp B→A at 120 min, 5 μM measured with MDR1 (P-gp) given this compound: CN(C)C(=O)c1cc(O)c(-c2ccc(N(C)[C@@H]3C[C@H]4CC[C@H](N4)[C@@H]3F)nn2)cc1F (single isomer, unassigned) [Compound 53A]
Given back: 41

Asked: Return Papp B→A at 120 min, 5 μM measured with MDR1 (P-gp) given this compound: CN(C)C(=O)c1cc2cc(O)c(-c3ccc(N(C4CC4)[C@@H]4C[C@H]5CC[C@H](N5)[C@@H]4F)nn3)cc2o1 [Compound 86A]
Given back: 62.5

Asked: Return Papp B→A at 120 min, 5 μM measured with MDR1 (P-gp) given this compound: CN(c1ccc(-c2cc3cc[nH]c(=O)c3s2)nn1)[C@@H]1C[C@H]2CC[C@H](N2)[C@@H]1F (single isomer, unassigned) [Compound 66A]
Given back: 4.4

Asked: Return Papp B→A at 120 min, 5 μM measured with MDR1 (P-gp) given this compound: CN(c1ccc(-c2cc(F)c(-n3ccnn3)cc2O)nn1)[C@@H]1C[C@H]2CC[C@@H]([C@@H]1F)N2C [Compound 103A]
Given back: 60.3

Asked: Return Papp B→A at 120 min, 5 μM measured with MDR1 (P-gp) given this compound: CN(c1ccc(-c2ccc(C(F)F)cc2O)nn1)[C@@H]1C[C@H]2CC[C@H](N2)[C@@H]1F (single isomer, unassigned) [Compound 120A]
Given back: 34.8

Asked: Return Papp B→A at 120 min, 5 μM measured with MDR1 (P-gp) given this compound: CN(c1ccc(-c2cc3ccn(C)c(=O)c3s2)nn1)[C@H]1C[C@@H]2CC[C@@H](N2)[C@H]1F (single isomer, unassigned) [Compound 67B]
Given back: 40.9

Asked: Return Papp B→A at 120 min, 5 μM measured with MDR1 (P-gp) given this compound: CN(c1ccc(-c2cc3ccn(C)c(=O)c3cc2O)nn1)[C@@H]1C[C@H]2CC[C@@H]([C@@H]1F)N2C (single isomer, unassigned) [Compound 97A]
Given back: 40.3

Asked: Return Papp B→A at 120 min, 5 μM measured with MDR1 (P-gp) given this compound: CN(C)C(=O)c1cc(O)c(-c2ccc(N(C)[C@H]3C[C@@H]4CC[C@H]([C@H]3F)N4C)nn2)cc1F (single isomer, unassigned) [Compound 104B]
Given back: 50.2

Asked: Return Papp B→A at 120 min, 5 μM measured with MDR1 (P-gp) given this compound: CCc1cn(-c2ccc(-c3ccc(N(C)[C@@H]4C[C@H]5CC(F)(F)[C@@H](C4)N5)nn3)c(O)c2)nn1 (single isomer, unassigned) [Compound 64A]
Given back: 52.2

Asked: Return Papp B→A at 120 min, 5 μM measured with MDR1 (P-gp) given this compound: CN(c1ccc(-c2ccc(Oc3cnn(C)c3)cc2O)nn1)[C@@H]1C[C@H]2CC[C@H](N2)[C@@H]1F (single isomer, unassigned) [Compound 91A]
Given back: 62.8

Asked: Return Papp B→A at 120 min, 5 μM measured with MDR1 (P-gp) given this compound: CN(c1ccc(-c2cc(C#N)ccc2O)nn1)[C@@H]1C[C@H]2CC[C@H](N2)[C@@H]1F (single isomer, unassigned) [Compound 70A]
Given back: 60.2

Asked: Return Papp B→A at 120 min, 5 μM measured with MDR1 (P-gp) given this compound: CN(c1ccc(-c2cc3ccn(C)c(=O)c3cc2O)nn1)[C@H]1C[C@@H]2CC[C@H]([C@H]1F)N2C (single isomer, unassigned) [Compound 97B]
Given back: 53.1

Asked: Return Papp B→A at 120 min, 5 μM measured with MDR1 (P-gp) given this compound: CN(c1ccc(-c2ccc(-n3cnc(C(=O)NC(C)(C)C)c3)cc2O)nn1)[C@@H]1C[C@H]2CC[C@H](N2)[C@@H]1F (single isomer, unassigned) [Compound 124A]
Given back: 45.7

Asked: Return Papp B→A at 120 min, 5 μM measured with MDR1 (P-gp) given this compound: CN(c1ccc(-c2ccc(-n3ccnc3)cc2O)nn1)[C@H]1C[C@@H]2CC(F)(F)[C@H](C1)N2 [Compound 13B]
Given back: 55.7

Asked: Return Papp B→A at 120 min, 5 μM measured with MDR1 (P-gp) given this compound: CN(C)C(=O)c1cc(O)c(-c2ccc(N(C)[C@@H]3C[C@H]4CC[C@@H]([C@@H]3F)N4C)nn2)cc1F (single isomer, unassigned) [Compound 104A]
Given back: 43.1

Asked: Return Papp B→A at 120 min, 5 μM measured with MDR1 (P-gp) given this compound: CN(c1ccc(-c2cn3c(=O)ccnc3cc2O)nn1)[C@@H]1C[C@H]2CC[C@H](N2)[C@@H]1F (single isomer, unassigned) [Compound 82A]
Given back: 3.33

Asked: Return Papp B→A at 120 min, 5 μM measured with MDR1 (P-gp) given this compound: CNC(=O)c1ccc(-c2ccc(N(C)[C@@H]3C[C@H]4CC[C@H](N4)[C@@H]3F)nn2)c(O)c1 (single isomer, unassigned) [Compound 77A]
Given back: 36.3

Asked: Return Papp B→A at 120 min, 5 μM measured with MDR1 (P-gp) given this compound: CN(c1ccc(-c2ccccc2O)nn1)[C@H]1C[C@@H]2CC[C@@H](N2)[C@H]1F (single isomer, unassigned) [Compound 119B]
Given back: 58.2

Asked: Return Papp B→A at 120 min, 5 μM measured with MDR1 (P-gp) given this compound: CN(c1ccc(-c2cc3oc(C(=O)N4CCC4)cc3cc2O)nn1)[C@@H]1C[C@H]2CC[C@@H]([C@@H]1F)N2C [Compound 107A]
Given back: 55.1
